PROTOCOL SUMMARY: qHTS assay to identify small molecule antagonists of the estrogen receptor beta (ER-beta) signaling pathway - cell viability counter screen (AID 1259382); further: nearly all actives have a fitted effect of over 55% in size
ASSAY CONDITIONS: ER-beta-UAS-bla HEK293T viability, CellTiter-Glo luminescence, 16 h; series mostly up to 92.4 µM
Inconclusive results are not listed. Calls of active or inactive are those of the source. The call rests on the fitted dose curve; in most records, active means well fitted cell-killing curve with a large enough effect in the repeat runs; inconclusive means weak or mixed curves; inactive means flat fitted curve, though single readings scatter.
Would you mind answering with one of these outcomes? TRUE for active, FALSE for inactive

Hi, sorry to bother you, what did the test record for `CSc1c(Cl)c(Cl)c(Cl)c(Cl)c1Cl` ?
FALSE

Field: outcome | Entry: CCCCCCCCCCOCC(O)CN (centres undefined)
TRUE

I would be grateful if you could indicate the recorded call for O=C1NC2CCCCN2C12CCN(CCCN1c3ccccc3CCc3ccc(Cl)cc31)CC2 (centres undefined) .
TRUE

Could you please tell me the result logged for COc1cccc(CCc2ccccc2OCC(CN(C)C)OC(=O)CCC(=O)O)c1 (centres undefined) in this assay?
TRUE

Which outcome was assigned to `CO[Si](CCCNCCNCCN)(OC)OC` in this test?
FALSE

Outcome logged for CCCC(O)C(O)CO (centres undefined) in this assay:
FALSE

Entry `CCCCCCCCCCCCCC[n+]1ccccc1` : call = ?
TRUE

Write down the call the test reported for this molecule. Item: `CCCCCCCCCC(=O)N(C)C`
FALSE

Which result was noted for this molecule in the test: Clc1ccc(C(c2ccccc2Cl)C(Cl)Cl)cc1 (centres undefined)
FALSE

Which outcome was entered for the molecule `CCCCCCCC(C)=O` in this test?
FALSE

Which outcome was assigned to CCN(CC)CCOc1ccc(C(O)(Cc2ccc(Cl)cc2)c2ccc(C)cc2)cc1 (centres undefined) in this test?
TRUE

Hi, sorry to bother you, what did the test record for `Nc1cc(Cl)c([N+](=O)[O-])cc1O` ?
FALSE

Assay result, entry `CCc1c(Br)c(Br)c(Br)c(Br)c1Br` — outcome?
FALSE

Could you kindly confirm the outcome this assay logged for `CCCCCCCCCCCC(=O)N(CC)CC` ?
FALSE

Please let me know the test result on file for `O=Nc1ccc(NO)cc1` .
FALSE

Answer briefly: the call reported for `CC(C)(C)c1cc(/C=C2\SC(=N)NC2=O)cc(C(C)(C)C)c1O` in this assay.
FALSE

Outcome logged for `Clc1cccnc1` in this assay:
FALSE

Hey, what did the test say about `Oc1ccc(-c2ccccc2)c(Cl)c1` ?
FALSE

Recorded test call requested for `C=CC(=O)OCCC#N`
FALSE

Returns: the outcome recorded for `CC1(C)C(=O)N(CO)C(=O)N1CO` in this assay.
FALSE

Status in this test for `Cc1oc(-c2ccccc2)nc1CCOc1ccc(C[C@H](Nc2ccccc2C(=O)c2ccccc2)C(=O)O)cc1` ?
TRUE

Which outcome did this test record for the molecule CCC(C)C(=O)OC (centres undefined) ?
FALSE

Hey, what did the test say about `CCCC(=O)OCC(COC(=O)CCC)OC(=O)CCC` ?
FALSE

Answer briefly: the call reported for `CC(=O)Nc1ccc(O)cc1` in this assay.
FALSE

Which result was noted for this molecule in the test: `Clc1cc(Cl)c(-c2c(Cl)c(Cl)cc(Cl)c2Cl)cc1Cl`
FALSE

Outcome logged for `Cc1cccc(C)c1NC(=O)CN1CCN(CCCC(c2ccc(F)cc2)c2ccc(F)cc2)CC1` in this assay:
TRUE

Hello, I am checking results. What call was entered for `CCCCCCCC/C=C\CCCCCCCC(=O)NCc1ccc(O)c(OC)c1` ?
FALSE

Outcome logged for `CCc1cccc(CC)c1N(COC)C(=O)CS(=O)(=O)O` in this assay:
FALSE

Kindly provide the recorded test outcome for the following molecule: `CCC1(c2cnc[nH]2)Cc2ccccc2C1`
FALSE

State the result this test recorded for OCCC(O)CO (centres undefined) .
FALSE

Which outcome was entered for the molecule `CCOC(/C=C(\C)CCC=C(C)C)OCC` in this test?
FALSE

Write down the call the test reported for this molecule. Item: `Cc1cc(=O)[nH]c(=O)[nH]1`
FALSE

For `O=C(O)Cc1ccc(OCCNC[C@H](O)c2ccccc2)cc1` , which call appears in the assay record?
FALSE

Recorded test outcome, item `Clc1ccccc1CN1CCc2sccc2C1`
FALSE

Could you please tell me the result logged for `Oc1ccc(-c2ccc(O)cc2)cc1` in this assay?
FALSE

Write down the call the test reported for this molecule. Item: `CCCCCCCCCCCCCc1ccccc1`
FALSE

// return assay outcome for `CCC1CCCCC1`
FALSE

Just curious, what result did CCCC(CC)CCCCCCCN (centres undefined) get here?
FALSE

Kindly provide the recorded test outcome for the following molecule: `O[C@@H](c1cc(C(F)(F)F)nc2c(C(F)(F)F)cccc12)[C@H]1CCCCN1`
TRUE

Hi, do you know how `CC(C)(C)C1=CC(=O)C=C(C(C)(C)C)C1=O` came out in this test?
FALSE

For `CCCCCCCC/C=C\CCCCCCCC(=O)OCCOC(=O)CCCCCCC/C=C\CCCCCCCC` , what call appears in the results of this test?
FALSE

Hi, sorry to bother you, what did the test record for `NC(=O)c1ccccc1N` ?
FALSE

Which outcome was entered for the molecule COc1ccccc1OCCNCC(O)COc1cccc2[nH]c3ccccc3c12 (centres undefined) in this test?
TRUE

Recorded test call requested for `SCCCCCCCCS`
FALSE

Record request — test call for `CCN=C1C=CC(=C(c2ccc(N(CC)CC)cc2)c2ccc(N(CC)CC)cc2)c2ccccc21`
TRUE

Could you kindly confirm the outcome this assay logged for `COc1cccc(OC)c1O` ?
FALSE

Fill in: this test's call for `Clc1nc2ccccc2s1` is ___
FALSE

What did the test return for `CC(=O)C=O` ?
FALSE

Record lookup: outcome of this test for `CC=O` ?
TRUE

# lookup: test call for `Cn1cnc2ncnc(N)c21`
FALSE

Recorded call for `O=C1OC(=O)c2ccc3c4c(ccc1c24)C(=O)OC3=O` ?
FALSE

I'd appreciate the recorded outcome for `CCCCCCS` from this test.
FALSE

Assay outcome for `C=C(C)CCCC` : what was it?
FALSE

Outcome? `O=C(Nc1ccc(Cl)cc1)Nc1ccc(Cl)c(C(F)(F)F)c1`
TRUE

Test call, this molecule: CC1CCCNC1 (centres undefined)
FALSE

Please indicate how the test categorized COC(=O)CC(C)CCC=C(C)C (centres undefined) .
FALSE

GET /call?item= `Nc1ccc2cc3ccc(N)cc3nc2c1` returns the recorded outcome of this test.
FALSE

Test call for this molecule, please: `O=C1C=CC(=O)N1c1ccccc1`
TRUE

What classification did `C/C=C/CO` end up with in this test?
FALSE
